The entries below come with measured IC50 (read off the curve) values attached.
Measurement Target: Programmed Death 1 (PD-1) (UniProt Q15116 25-288, limits assumed)
Sequence (Q15116 25-288 limits assumed): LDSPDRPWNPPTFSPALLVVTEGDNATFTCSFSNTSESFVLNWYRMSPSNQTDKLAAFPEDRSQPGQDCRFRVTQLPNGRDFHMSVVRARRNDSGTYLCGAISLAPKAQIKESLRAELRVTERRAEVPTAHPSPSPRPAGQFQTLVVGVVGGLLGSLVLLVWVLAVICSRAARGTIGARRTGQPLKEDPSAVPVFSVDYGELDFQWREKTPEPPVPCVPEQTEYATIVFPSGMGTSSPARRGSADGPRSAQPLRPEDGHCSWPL
Test Name: FACS, blocking of ligand-Ig binding to PD-1, MFI of bound ligand against mAb concentration; legend paragraph 53 names 'PD-LI-Ig and PD-L2-Ig' for FIG. 8A; cells not named

Binder	Result
BAP049-hum05 (antibody, human IgG4 S228P, kappa, V domains shown, also called humanized BAP049 clone hum05) VH: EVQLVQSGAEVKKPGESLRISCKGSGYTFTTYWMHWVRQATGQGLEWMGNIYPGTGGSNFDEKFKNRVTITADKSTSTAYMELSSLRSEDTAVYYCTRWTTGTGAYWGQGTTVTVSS VL: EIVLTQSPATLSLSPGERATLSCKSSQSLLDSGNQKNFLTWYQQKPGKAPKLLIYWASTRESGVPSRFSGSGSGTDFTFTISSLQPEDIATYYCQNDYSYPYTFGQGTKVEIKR	~1 µg/mL
Chi mAb (Tyr) (antibody, human IgG4 S228P, kappa, V domains shown, also called BAP049-chi-Y; Chi (Tyr)) VH: QVQLQQSGSELVRPGASVKLSCKASGYTFTTYWMHWVRQRPGQGLEWIGNIYPGTGGSNFDEKFKNRTSLTVDTSSTTAYMHLASLTSEDSAVYYCTRWTTGTGAYWGQGTTVTVSS VL: DIVMTQSPSSLTVTAGEKVTMSCKSSQSLLDSGNQKNFLTWYQQKPGQPPKLLIFWASTRESGVPDRFTGSGSVTDFTLTISSVQAEDLAVYYCQNDYSYPYTFGQGTKVEIKR	~0.9 µg/mL
BAP049-hum01 (antibody, human IgG4 S228P, kappa, V domains shown, Humanized anti-PD-1 mAb; also called humanized BAP049 clone hum01) VH: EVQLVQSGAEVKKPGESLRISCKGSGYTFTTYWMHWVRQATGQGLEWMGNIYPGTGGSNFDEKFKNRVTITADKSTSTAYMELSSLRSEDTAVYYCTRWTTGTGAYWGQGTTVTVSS VL: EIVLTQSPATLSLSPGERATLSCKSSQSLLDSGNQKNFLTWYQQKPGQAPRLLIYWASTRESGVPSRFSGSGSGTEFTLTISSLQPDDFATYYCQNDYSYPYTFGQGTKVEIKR	~1 µg/mL

Let us examine a further case.
Give its IC50 (read off the curve) value. Item: Mu mAb (antibody, V domains shown, also called murine mAb BAP049; murine anti-PD-1 mAb BAP049) VH: QVQLQQSGSELVRPGASVKLSCKASGYTFTTYWMHWVRQRPGQGLEWIGNIYPGTGGSNFDEKFKNRTSLTVDTSSTTAYMHLASLTSEDSAVYYCTRWTTGTGAYWGQGTLVTVSA VL: DIVMTQSPSSLTVTAGEKVTMSCKSSQSLLDSGNQKNFLTWYQQKPGQPPKLLIFWASTRESGVPDRFTGSGSVTDFTLTISSVQAEDLAVYYCQNDYSYPCTFGGGTKLEIK ~0.7 µg/mL
